biological target: SARS-CoV-2 RBD protein Avi-tag biotinylated (AcroBiosystems SPD-C82E9) (SARS-CoV-2, UniProt P0DTC2 330-518); assay: competition AlphaLISA; competitor human ACE2-mFc
READOUT KIND: pIC50
// pIC50 is dimensionless: -log10 of concentration (M)

// below: answered binders
[
  {
    "BINDER": "VHH3.36 (VHH) VHH: QVQLQESGGGLVQAGDSLRLSCVVSGGTFSSYAMGWFRQAPGKERELVAAINWGGISVYYADSVKGRFTISRDNAENTVYLQMNSLKPEDTAVYYCAADPKGWSEWDMEYWGKGTQVTVSS",
    "READOUT KIND": "pIC50",
    "OBSERVED MEASUREMENT": 9.25
  },
  {
    "BINDER": "VHH3.35 (VHH) VHH: QVQLQESGGGLVQAGGSLTLSCEVSGRTNDNYGVGWFRQVPGAERELVAAIRWSSISRYYKDSVKGRFTISRDNAKNTVYLQMDMLKAEDTAVYYCAADPAGWSEFGMEYWGKGTQVTVSS",
    "READOUT KIND": "pIC50",
    "OBSERVED MEASUREMENT": 8.97
  },
  {
    "BINDER": "VHH3.29 (VHH) VHH: QVQLQESGGGLVQAGGSLRLSCVASGRTFSSGGMGWFRQAPGQEREFVAGIGWAGLSSYYLDSVKGRFTISLDNAKNTVYLQMNMLKPEDTGVYYCAADDHGWSAAGMDYLGQGTQVTVSS",
    "READOUT KIND": "pIC50",
    "OBSERVED MEASUREMENT": 9.00
  },
  {
    "BINDER": "VHH3.115 (VHH) VHH: QVQLQESGGGLVQTGGSLRLSCAASGLTFSDIAMGWFRQAPGREREFVATISWSGGGTYYAEPVRGRFAISRDNAKNTVYLQMNSLKPEDTAVYYCAAAGAGTVVSEWDYDYDYWGQGTQVTVSS",
    "READOUT KIND": "pIC50",
    "OBSERVED MEASUREMENT": 8.97
  }
]

Let us examine a further case.
Tell me the measured pIC50 of VHH2.50 (VHH) VHH: QVQLQESGGGLVQAGGSLRLSCAASGRTFSSIAMGWFRQAPGKEREFVATISWSGGSTYYADSVKGRFTISRDNAKNTVYLQMNSLKPEDTAVYYCAAAGLGTVVSEWDYDYDYWGQGTQVTVSS , please.
7.47

Hey, just so you know, these numbers are from patent US20230227537A1.
